Kindly supply the reported ELISA signal values for the records listed here.
# SYSTEM TESTED: T1, human HVEM (human, UniProt Q92956 39-202, limits assumed); further: test concentration or dose not given here
# T1 sequence (looked up): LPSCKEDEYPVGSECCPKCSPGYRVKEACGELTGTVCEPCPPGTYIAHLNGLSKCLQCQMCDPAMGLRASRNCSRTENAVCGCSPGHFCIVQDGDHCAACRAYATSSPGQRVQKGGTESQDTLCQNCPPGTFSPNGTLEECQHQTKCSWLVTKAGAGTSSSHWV
# ASSAY PROCEDURE: ELISA
Please give the numeric answer without any surrounding text.

Query :: Suppose we examine the binder Ab_080 (H5S20-27A23A) (antibody, V domains shown, also called Ab_80) VH: EVQLQQSGTVLARPGASVKMSCKASGYSFTSYWMHWLKQRPGQGLEWIGAIYPGNSDTVFNQKFKGKAKLTAVTSATTAYMELSSLTNEDSAVYYCTKEPRTIEGAWFTYWGQGTLVTVSA VL: DIVMTQSPSSLTVPAGEKVTMSCKSSQSLLNSENQKNYLTWYQQKPGQPPKLLIYWASTRESGVPDRFTGSGSGTDFTLTISSVQAEDLAVYYCQSDYSYPLTFGAGTKLELK ; what ELISA signal value has been reported?
Result :: 3.07

Query :: Suppose we examine the binder Ab_034 (H5S15-16A11B) (antibody, V domains shown, also called Ab_34) VH: DVQLVESGGGLVQPGGSRKLSCAASGFTFSSFGMHWVRQAPEKGLEWVAHISSGSSTIYYADTVKGRFTISRDNPKNTLFLQMTSLRSEDTAMYYCARGAYGNFAWFPYWGQGTLVTVSA VL: DVVMTQTPLSLSVSLGDQASISCRSSQSLVHSNGNTYLHWYLQKPGQSPKLLIYKVSNRFSGVPDRFSGSGSGTDFTLKISRVEAEDLGVYFCSQSTHVPTFGSGTKLEIK ; what ELISA signal value has been reported?
Result :: 3.19

Query :: Suppose we examine the binder Ab_027 (H5S15-17A16A) (antibody, V domains shown, also called Ab_27) VH: EVQLQQSGAELVKPGASVKLSCTASGFNIKDTYMHWVKQRPEQGLEWIGRIAPANGKTKFDPKFQGKATITADTSSNTAYLQLSSLTSEDTAVYYCANYYGRSNDWFVYWGQGTLVTVSA VL: DVLMTQTPLSLPVSLGDQASISCRSSQSIVHSNGITYLEWYLQKPGQSPELLIYKVSNRFSGVPDRFSGSGSGTDFTLKISRVEAEDLGVYYCFQGSHVPLTFGAGTKLELK ; what ELISA signal value has been reported?
Result :: 3.13
